Entry source: PubChem BioAssay AID1963825

# assay info: Anticancer human tumor 997537-175-T-J1-PDC patient-derived colon adenocarcinoma cell line growth inhibition [POLQ];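 also: luminescence signal used as a surrogate for viable cells; spheroids exposed to drugs for seven days before readout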
# run conditions: 997537-175-T-J1-PDC complex spheroid viability, combination with POLQ inhibitors; second compound 0.316 µM; first compound 1 µM; stronger effect = lower value
metric: viability, T/C (%)
Please state the figure in %; there is no need to write the unit.

### Prompt For the compound C#Cc1c(F)ccc2cc(O)cc(-c3ncc4c(N5CC6CCC(C5)N6)nc(OCC56CCCN5CC(F)C6)nc4c3F)c12 (stereo not given) + COC1C(OC(N)=O)C(O)C(Oc2ccc3c(O)c(NC(=O)c4ccc(O)c(CC=C(C)C)c4)c(=O)oc3c2C)OC1(C)C , what viability, T/C is on record?
### Response 104

### Prompt For the compound COc1cccc2c1C(=O)c1c(O)c3c(c(O)c1C2=O)CC(O)(C(=O)CO)CC3OC1CC(N)C(O)C(C)O1 (stereo not given) + COC1C(OC(N)=O)C(O)C(Oc2ccc3c(O)c(NC(=O)c4ccc(O)c(CC=C(C)C)c4)c(=O)oc3c2C)OC1(C)C , what viability, T/C is on record?
### Response 96.6

### Prompt For the compound CC1COCCN1c1cc(C2(O)CC3CCC(C2)O3)c2cnn(-c3ccn[nH]3)c2n1 (stereo not given) + Cc1cccc(N(C)C(=O)C2C(O)CCN2c2nc(C)cc(C(F)(F)F)c2C#N)c1 , what viability, T/C is on record?
### Response 45.9

### Prompt For the compound CC1COCCN1c1cc(-c2ccnn2C)c2ccnc(-c3ccn[nH]3)c2n1 (stereo not given) + Cc1cccc(N(C)C(=O)C2C(O)CCN2c2nc(C)cc(C(F)(F)F)c2C#N)c1 , what viability, T/C is on record?
### Response 50.5

### Prompt For the compound Nc1ccn(C2OC(CO)C(O)C2(F)F)c(=O)n1 (stereo not given) + COC1C(OC(N)=O)C(O)C(Oc2ccc3c(O)c(NC(=O)c4ccc(O)c(CC=C(C)C)c4)c(=O)oc3c2C)OC1(C)C , what viability, T/C is on record?
### Response 78.4
